Tested on: NOMO1
Assay: cell viability relative to DMSO control; higher = less cytotoxic
Settings: RPMI 5 mM glucose + 10% dialyzed FBS; 48 h; 0.0632 µM
# reported cell viability; entries follow
Report as: number unit

Looking up `CC\1=C/C=C\C=[N]1[Pt](N)(Cl)Cl` , I see its cell viability listed as 96.4%

Looking up `Oc1ccc2c3c1O[C@H]1c4[nH]c5c(c4C[C@@]4(O)[C@@H](C2)N(CC2CC2)CC[C@]314)C[C@@]1(O)[C@H]2Cc3ccc(O)c4c3[C@@]1(CCN2CC1CC1)[C@H]5O4` , I see its cell viability listed as 123%

Looking up `CCc1cc(Nc2nccc(-c3c(-c4ccc(OC)c(C(=O)Nc5c(F)cccc5F)c4)nc4ccccn34)n2)c(OC)cc1N1CCC(N2CCN([S+](C)(=O)[O-])CC2)CC1` , I see its cell viability listed as 104%

Looking up `CCCCCOC(=O)NC\1=N\C(=O)N(\C=C1F)[C@@H]2O[C@H](C)[C@@H](O)[C@H]2O` , I see its cell viability listed as 103%

----------
Test system: SEM cells
Assay: AUC of viability dose-response curve (% viability x log10 dose units); higher = less sensitive
Conditions: RPMI 5 mM glucose + 10% FBS; 48 h
property: AUC of viability dose-response curve

COc1ccc(-c2cc3nccn3c(Nc3ncccc3C(N)=O)n2)cc1OC | 405
C/C=C/C[C@@H](C)C(=O)[C@H]1C(=O)N[C@@H](C(C)C)C(=O)N(C)CC(=O)N(C)[C@@H](CC(C)C)C(=O)N[C@@H](C(C)C)C(=O)N(C)[C@@H](CC(C)C)C(=O)N[C@@H](C)C(=O)N[C@H](C)C(=O)N(C)[C@@H](CC(C)C)C(=O)N(C)[C@@H](CC(C)C)C(=O)N(C)[C@@H](C(C)C)C(=O)N1C | 406

Looking up CC\1=C(C(\N=C(/N1)C2=CC(=NC=C2)Cl)C3=C(F)C=C(Cl)C=C3)/C(=O)NC4=C(F)C=C5[NH]N=CC5=C4 (stereo not drawn) , I see its AUC of viability dose-response curve listed as 405

----------
Tested on: P12-Ichikawa
Assay: cell viability relative to DMSO control; higher = less cytotoxic
Details: RPMI 5 mM glucose + 10% dialyzed FBS; 48 h; 5.12 µM
property: cell viability (%)
Expressed in %, but write only the number.

CC(=O)O[C@H]1C[C@@H]2CC[C@@H]3[C@H](CC[C@@]4(C)[C@H]3C[C@H]([N+]3(C)CCCCC3)[C@@H]4OC(C)=O)[C@@]2(C)C[C@@H]1[N+]1(C)CCCCC1 | 125
COc1cccc2cc(-c3nc(C4CCC(C(=O)O)CC4)n4ncnc(N)c34)[nH]c12 (stereo not drawn) | 23.2
O=NN(CCCl)C(=O)NC1CCCCC1 | 105
CN(c1ncccc1CNc1nc(Nc2ccc3c(c2)CC(=O)N3)ncc1C(F)(F)F)[S+](C)(=O)[O-] | 110
CC1(C)CC(=O)c2c(C(F)(F)F)nn(-c3ccc(C(N)=O)c(NC4CCC(O)CC4)c3)c2C1 (stereo not drawn) | 25.5

Attention now shifts to the item below.
Looking up `CCCCCOC(=O)NC\1=N\C(=O)N(\C=C1F)[C@@H]2O[C@H](C)[C@@H](O)[C@H]2O` , I see its cell viability listed as 90.1

src = the supplement of paper PMC11451515
